# Test system: SK-MEL-5
# experiment description: NCI tumour cell line growth inhibition, 48 h
Active and inactive are the calls of the source. Cut-off read from the data, not from the text of the source: active = GI50 up to about 1.1 µM and inactive = higher. Starred links: 1 amine or outer side, 2 acyl side, 3 side chain; linkers in the order of their positions; H or OH if unused. Non-standard residues stand in square brackets, D forms with d. Residues, ends and D or L forms follow the SMILES beside them. *: point of attachment. X47 = CCC(=O)CC1CC(C)CC(C(=O)[*:2])N1[*:1]; X46 = CCCCCCCCC(C)C(=O)*; Aib = CC(C)(N)C(=O)O; X48 = CC(CN(C)CCO)N*
Reported GI50 is given for each of the following compounds.

- compound: "CC(CN1CCN(CC(C)Nc2ccnc3cc(Cl)ccc23)CC1)Nc1ccnc2cc(Cl)ccc12 (configuration not stated)"
  assay readout: "GI50"
  result: "17.5 µM (inactive)"
- compound: "Cc1c2cc[n+](C)cc2c(C)c2c1[nH]c1ccc(OC(C)(C)C)cc12"
  assay readout: "GI50"
  result: "> 100 µM (inactive)"
- compound: "COc1ccc(/C=C/c2cc(O)cc(OC3OC(CO)C(O)C(O)C3O)c2)cc1O (configuration not stated)"
  assay readout: "GI50"
  result: "> 100 µM (inactive)"
- compound: "N=C(N)N/N=C\\c1c(-c2cccc([N+](=O)[O-])c2)nc2sc(Cl)cn12"
  assay readout: "GI50"
  result: "24.4 µM (inactive)"
- compound: "COc1cc(OC)cc(Oc2nc3ccc(C(F)(F)F)cc3nc2-c2ccccc2)c1"
  assay readout: "GI50"
  result: "> 100 µM (inactive)"
- compound: "CCCCCCCCC(C)C(=O)N1CCCC1C(=O)N1C(CC(=O)CC)CC(C)CC1C(=O)NC(C)C(=O)NC(C)(C)C(=O)NC(C)(C)C(=O)NC(C(=O)NC(C)C(=O)NC(C)(C)C(=O)NC(C)(C)C(=O)NC(C)CN(C)CCO)C(C)CC (configuration not stated) (X46-P[X47]A[Aib][Aib]IA[Aib][Aib]-X48; configuration not given here)"
  assay readout: "GI50"
  result: "< 0.0135 µM (active)"

Note: attention shifts to another entry.
Consider the compound `COc1ccc(C(SCCO)(c2ccccc2)c2ccc(OC)cc2)cc1` . State its measured GI50.
8 µM (inactive)

====

# Tested on: SF-539
# experiment description: NCI tumour cell line growth inhibition, 48 h
Activity calls are given as the source filed them. No stated cut-off is given here; in the data, active = GI50 up to about 1.1 µM and inactive = higher.
Measured GI50, listed per entry for reference.

- compound: "CC1=CC2(C)C=C[C@@H]1C(=O)[C@@]1(C)CC[C@@](O)(C(C)C)[C@H]1CC2"
  assay readout: "GI50"
  result: "18.9 µM (inactive)"
- compound: "COc1ccc(C2=C(N)c3c(Cl)cccc3C2=O)cc1"
  assay readout: "GI50"
  result: "> 100 µM (inactive)"
- compound: "O=S(=O)(O)c1ccc2cc(/N=N\\c3cc(S(=O)(=O)O)c4cccnc4c3O)ccc2c1"
  assay readout: "GI50"
  result: "> 100 µM (inactive)"
- compound: "COC(=O)C1Cc2c([nH]c3ccccc23)C=N1 (stereo unspecified)"
  assay readout: "GI50"
  result: "> 100 µM (inactive)"
- compound: "O=C1/C(=C\\c2cccc(Oc3ccccc3)c2)SC(c2ccccc2)N1c1cc(Cl)ccc1Cl (stereo unspecified)"
  assay readout: "GI50"
  result: "24.3 µM (inactive)"

Okay, now this compound:
Quick one: give measured GI50 for `Nc1nc(Cl)cc(NCC2(CCO)CCC2)n1`
> 100 µM (inactive)
